- experimental.system: Porcine Ventricle myofibrils (left ventricle of Yucatan minipigs) (Sus scrofa)
- Construct: Myofibrils from porcine cardiac muscle was isolated from the left ventricle of Yucatan minipigs; tissue Exemplar Genetics; host or cells: left ventricle of Yucatan minipigs
- Sequence (P79293 whole entry): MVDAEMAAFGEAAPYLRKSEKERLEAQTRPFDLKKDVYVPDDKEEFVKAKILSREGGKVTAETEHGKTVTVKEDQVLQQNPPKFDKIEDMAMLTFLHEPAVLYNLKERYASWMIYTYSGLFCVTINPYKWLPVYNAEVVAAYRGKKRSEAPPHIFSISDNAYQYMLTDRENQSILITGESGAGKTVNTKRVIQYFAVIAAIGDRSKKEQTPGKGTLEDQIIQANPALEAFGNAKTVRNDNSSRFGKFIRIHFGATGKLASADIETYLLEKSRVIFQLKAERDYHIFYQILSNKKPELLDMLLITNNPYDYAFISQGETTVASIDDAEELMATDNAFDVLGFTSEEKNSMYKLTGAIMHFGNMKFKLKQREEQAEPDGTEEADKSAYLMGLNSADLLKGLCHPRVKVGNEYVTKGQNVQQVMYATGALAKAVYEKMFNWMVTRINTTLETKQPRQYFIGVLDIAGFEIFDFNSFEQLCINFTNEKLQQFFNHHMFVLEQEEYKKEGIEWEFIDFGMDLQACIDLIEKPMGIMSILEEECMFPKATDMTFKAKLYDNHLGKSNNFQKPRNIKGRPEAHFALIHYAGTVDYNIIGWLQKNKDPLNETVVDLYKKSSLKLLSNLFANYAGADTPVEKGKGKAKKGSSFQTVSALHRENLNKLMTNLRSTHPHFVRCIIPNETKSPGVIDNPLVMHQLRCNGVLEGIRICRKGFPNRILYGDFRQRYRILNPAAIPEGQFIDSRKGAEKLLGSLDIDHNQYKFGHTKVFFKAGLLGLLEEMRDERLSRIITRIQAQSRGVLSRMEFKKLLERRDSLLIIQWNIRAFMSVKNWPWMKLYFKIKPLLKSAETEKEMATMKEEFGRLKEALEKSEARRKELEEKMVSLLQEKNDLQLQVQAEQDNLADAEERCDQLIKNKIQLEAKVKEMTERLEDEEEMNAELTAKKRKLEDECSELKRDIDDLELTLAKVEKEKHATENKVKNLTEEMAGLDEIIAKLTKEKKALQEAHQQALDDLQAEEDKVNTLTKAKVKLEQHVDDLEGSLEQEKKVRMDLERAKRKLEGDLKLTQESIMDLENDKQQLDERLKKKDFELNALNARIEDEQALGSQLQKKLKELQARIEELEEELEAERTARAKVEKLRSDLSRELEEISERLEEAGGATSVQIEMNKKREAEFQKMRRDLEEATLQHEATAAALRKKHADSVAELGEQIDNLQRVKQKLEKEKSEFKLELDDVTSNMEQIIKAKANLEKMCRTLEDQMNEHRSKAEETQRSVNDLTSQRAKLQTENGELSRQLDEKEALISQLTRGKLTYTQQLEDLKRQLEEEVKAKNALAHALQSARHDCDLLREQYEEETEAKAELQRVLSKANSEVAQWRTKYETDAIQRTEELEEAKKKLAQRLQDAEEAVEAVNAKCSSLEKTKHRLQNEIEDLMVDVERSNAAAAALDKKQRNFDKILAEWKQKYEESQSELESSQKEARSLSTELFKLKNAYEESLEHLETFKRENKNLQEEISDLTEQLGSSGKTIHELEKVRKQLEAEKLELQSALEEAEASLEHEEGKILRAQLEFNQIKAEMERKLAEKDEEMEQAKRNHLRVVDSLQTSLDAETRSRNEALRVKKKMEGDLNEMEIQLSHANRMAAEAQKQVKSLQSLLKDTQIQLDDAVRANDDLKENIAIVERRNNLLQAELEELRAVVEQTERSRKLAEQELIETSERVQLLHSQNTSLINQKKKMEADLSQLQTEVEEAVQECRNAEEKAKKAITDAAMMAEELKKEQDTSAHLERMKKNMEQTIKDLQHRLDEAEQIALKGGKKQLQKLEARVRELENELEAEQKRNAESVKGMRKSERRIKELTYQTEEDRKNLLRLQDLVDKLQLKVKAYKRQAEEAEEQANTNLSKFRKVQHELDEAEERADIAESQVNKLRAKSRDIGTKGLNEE
- assay.method.text: Myofibril ATPase assay (PK/LDH NADH-coupled), ventricle myofibrils
- Assay type: biochemical
- settings: Table 7
observed.property: Porcine Ventricle IC25 (µM)

The cases that follow already have their Porcine Ventricle IC25 on record.
C[C@H](NC(=O)CN1Cc2nc(C(F)(F)F)ccc2NC1=O)c1ccc(F)cc1F [Compound N112]	9.823
O=C(CN1Cc2c(ccnc2C(F)(F)F)NC1=O)N[C@@H](CO)c1ncc(F)cc1F [Compound N50]	100
C[C@@H](NC(=O)CN1Cc2c(ccnc2C(F)(F)F)NC1=O)c1ccc(C#N)cc1F [Compound N73]	100

(a) C[C@H](NC(=O)[C@H](C)N1Cc2nc(F)ccc2NC1=O)c1ccc(F)cc1 [Compound N98]
(b) C[C@H](NC(=O)CN1Cc2c(ccnc2OC2CC2)NC1=O)c1ccc(F)cc1F [Compound N116]
Of the two listed items, which has the higher Porcine Ventricle IC25? First: a Second: b State the label of the item chosen.
a
(a: 71.64 µM, b: 40.22 µM)

(I) C[C@H](NC(=O)CN1Cc2cc(F)cnc2NC1=O)c1ncc(F)cc1F [Compound N70]
(II) COc1ccc2c(n1)C1(CC1)N(CC(=O)N[C@@H](C)c1ncc(F)cc1F)C(=O)N2 [Compound N68]
Just tell me: smaller Porcine Ventricle IC25 value, I or II ? Selection: enter the item's label.
II
(II: 1.833 µM, I: 100 µM)

(P) C[C@H](NC(=O)CN1Cc2nc(C#N)ccc2NC1=O)c1ncc(F)cc1F [Compound N59]
(Q) C[C@H](NC(=O)CN1C(=O)Nc2ccc(C#N)nc2C12CC2)c1ncc(F)cc1F [Compound N15]
Compare P and Q and name the one whose reported Porcine Ventricle IC25 is smaller. Identify your selection by its label.
Q

====

- Tested on: Porcine Atria myofibrils
- assay.method.text: Myofibril ATPase assay (PK/LDH NADH-coupled), atria myofibrils
- Type: biochemical
- settings: Table 8
observed.property: Porcine Atria IC25 (µM)

Cc1cc(F)cnc1[C@H](C)NC(=O)CN1Cc2c(ccc(F)c2F)NC1=O	0.02
CC(NC(=O)CN1Cc2cc(C#N)ccc2NC1=O)c1ncc(C#N)cc1F (stereo not shown)	5.96

(I) N#Cc1cc(F)c2c(c1)OC[C@H]2NC(=O)CN1C(=O)Nc2ccc(F)c(F)c2C12CC2
(II) C[C@H](NC(=O)CN1Cc2c(F)cccc2NC1=O)c1ccc(C#N)cc1F
Consider I and II . Which of these has its Porcine Atria IC25 at a higher number? Write down the label attached to your selection.
II
(II: 0.12 µM, I: 0.07 µM)

====

- Test system: Porcine Atria myofibrils
- assay.method.text: Myofibril ATPase assay (PK/LDH NADH-coupled), atria myofibrils
- Type: biochemical
- settings: Table 8
observed.property: Porcine Atria IC25 (µM)

C[C@H](NC(=O)CN1Cc2cc3c(cc2NC1=O)OCCO3)c1ncc(C#N)cc1F	77.49

(A) C[C@@H](NC(=O)CN1Cc2cc(F)ccc2NC1=O)c1ncc(C#N)cc1F
(B) C[C@H](NC(=O)CN1Cc2cc(F)cc(F)c2NC1=O)c1ccc(C#N)cc1F
(C) O=C(CN1Cc2c(ccc(F)c2F)NC1=O)N[C@@H]1COc2cc(F)cnc21
Order the entries by their reported Porcine Atria IC25, beginning at the minimum. List the labels in the requested order.
C, B, A

====

- System: Rabbit Skeletal myofibrils (rabbit psoas muscle)
- assay.method.text: Myofibril ATPase assay (PK/LDH NADH-coupled), skeletal myofibrils
- Format: biochemical
- settings: Table 8
observed.property: Rabbit Psoas IC25 (µM)

C[C@@H](NC(=O)CN1Cc2c(ccc(F)c2F)NC1=O)c1ccc(C(F)(F)F)cn1	100

(A) N#Cc1cnc2c(c1)OC[C@H]2NC(=O)CN1Cc2c(ccc(F)c2F)NC1=O
(B) C[C@@H](NC(=O)CN1Cc2cc(F)c(F)cc2NC1=O)c1ncc(C#N)cc1F
Hi team, can someone confirm which has the larger Rabbit Psoas IC25: A or B ? Thanks. Label of pick, please.
B

====

- experimental.system: Porcine Ventricle myofibrils (left ventricle of Yucatan minipigs) (Sus scrofa)
- Construct: Myofibrils from porcine cardiac muscle was isolated from the left ventricle of Yucatan minipigs; tissue Exemplar Genetics; host or cells: left ventricle of Yucatan minipigs
- assay.method.text: Myofibril ATPase assay (PK/LDH NADH-coupled), ventricle myofibrils
- Type: biochemical
- settings: Table 8
observed.property: Porcine Ventricle IC25 (nM)

Please review the entries below; each comes with its answer.
C[C@@H](NC(=O)CN1Cc2cc(F)cc(C#N)c2NC1=O)c1ccc(C#N)cc1F	100000
C[C@H](NC(=O)CN1Cc2c(ccc(F)c2F)NC1=O)c1nnc(-c2ccccc2F)s1	100000
C[C@H](NC(=O)CN1Cc2c(ccc(F)c2F)NC1=O)c1ccc(Cl)cn1	543.8
C[C@H](NC(=O)CN1C(=O)Nc2ccc(F)cc2C12CC2)c1ccc(C#N)nn1	100000
C[C@H](NC(=O)CN1Cc2cc3c(cc2NC1=O)OCCO3)c1ncc(C#N)cc1F	73200
C[C@@H](C(=O)N[C@H](CO)c1ccc(F)cc1F)N1Cc2c(Cl)cccc2NC1=O	100000
C[C@H](C(=O)N[C@H](C)c1ccc(F)cc1F)N1Cc2cc(F)ccc2NC1=O	100000
Cc1ccc2c(c1F)CN(CC(=O)N[C@@H](C)c1ccc(C#N)cc1F)C(=O)N2	42.1
C[C@H](NC(=O)CN1Cc2cc(F)ccc2NC1=O)c1ccc(C#N)cc1	1393
C[C@H](NC(=O)CN1Cc2cc(F)c(F)cc2NC1=O)c1ccc(C#N)cc1F	45.7

(1) C[C@H](NC(=O)CN1Cc2c(ccc(F)c2F)NC1=O)c1ccc(F)cc1F
(2) Cc1cc(C#N)ncc1[C@@H](C)NC(=O)CN1Cc2c(ccc(F)c2F)NC1=O
(3) O=C(CN1Cc2c(ccc(F)c2F)NC1=O)N[C@H]1CCc2cc(F)cnc21 (single isomer, unassigned)
Rank the items in ascending order with respect to Porcine Ventricle IC25. Return the labels ranked in the requested order, please.
2, 1, 3
(2: 51.9 nM, 1: 143.5 nM, 3: 100000 nM)

(I) C[C@@H](NC(=O)CN1Cc2c(F)cccc2NC1=O)c1ccc(C#N)cc1F
(II) C[C@@H](NC(=O)CN1Cc2cc(F)c(F)cc2NC1=O)c1ccc(C#N)cc1F
Which record would sort first by descending Porcine Ventricle IC25, I or II ? Reply with the label of the item you choose.
II

====

- Test system: Porcine Atria myofibrils
- assay.method.text: Myofibril ATPase assay (PK/LDH NADH-coupled), atria myofibrils
- Assay type: biochemical
- settings: Table 8
observed.property: Porcine Atria IC25 (nM)

N#Cc1cnc2c(c1)COC[C@H]2NC(=O)CN1Cc2c(ccc(F)c2F)NC1=O [Compound B4]	70

(I) C[C@H](NC(=O)CN1Cc2c(ccc(F)c2F)NC1=O)c1ncc(Cl)cc1F [Compound B82]
(II) C[C@H](NC(=O)CN1Cc2cc(C#N)ccc2NC1=O)c1ncc(F)cc1F [Compound B197]
(III) C[C@H](NC(=O)CN1C(=O)Nc2ccc(F)c(F)c2C12CC2)c1ncc(C#N)cc1Cl [Compound B307]
(IV) O=C(CN1Cc2c(ccc(F)c2F)NC1=O)N[C@H]1COCc2cc(F)cnc21 [Compound B363]
(V) Cc1nc(C#N)ncc1[C@H](C)NC(=O)CN1Cc2c(ccc(F)c2F)NC1=O [Compound B2]
# rank by Porcine Atria IC25, ascending (min first) Response field: labels, in requested order.
I, III, V, II, IV

(a) C[C@@H](NC(=O)C1(N2Cc3c(ccc(F)c3F)NC2=O)CC1)c1ncc(C#N)cc1F [Compound B268]
(b) N#Cc1cnc2c(c1)OC[C@@H]2NC(=O)CN1C(=O)Nc2cccc(C#N)c2C12CC2 [Compound B311]
Please indicate which has the smaller reported Porcine Atria IC25: a , or b . # reply format: chosen label
a

====

- System: Rabbit Skeletal myofibrils (rabbit psoas muscle)
- assay.method.text: Myofibril ATPase assay (PK/LDH NADH-coupled), skeletal myofibrils
- Type: biochemical
- settings: Table 7
observed.property: Rabbit Psoas IC25 (µM)

C[C@H](NC(=O)CN1Cc2c(ccnc2OC2COC2)NC1=O)c1ccc(F)cc1F [Compound N66]	0.3112

(A) COc1ccc2c(n1)C1(CC1)N(CC(=O)N[C@H](C)c1ncc(F)cc1F)C(=O)N2 [Compound N67]
(B) CC(C(=O)N[C@@H](C)c1ccc(F)cc1F)N1Cc2nc(F)ccc2NC1=O (some centres unmarked) [Compound N110]
Problem: Given the entries A and B , determine which has the lower reported Rabbit Psoas IC25. Use the label to indicate which entry you chose.
B
(B: 0.1674 µM, A: 100 µM)

(1) C[C@H](NC(=O)[C@H](C)N1Cc2nc(F)ccc2NC1=O)c1ccc(F)cc1 [Compound N98]
(2) C[C@@H](NC(=O)CN1Cc2c(ccnc2C#N)NC1=O)c1ncc(F)cc1F [Compound N61]
(3) C[C@@H](NC(=O)CN1C(=O)Nc2ccc(C#N)nc2C12CC2)c1ncc(C#N)cc1F [Compound N3]
(4) CC(C)C[C@H](C(=O)N[C@@H](C)c1ccc(F)cc1F)N1Cc2nc(F)ccc2NC1=O [Compound N90]
# sort list by recorded Rabbit Psoas IC25, greatest to least I'd appreciate it if you listed the labels in the requested order.
2, 4, 3, 1

(P) C[C@H](NC(=O)[C@@H](C)N1Cc2nc(C#N)ccc2NC1=O)c1ccc(F)cc1F [Compound N46]
(Q) C[C@H](NC(=O)CN1Cc2nc(OC3CC3)ccc2NC1=O)c1ccc(F)cc1F [Compound N113]
(R) N#Cc1ccc([C@H](CO)NC(=O)CN2Cc3c(ccnc3C#N)NC2=O)c(F)c1 [Compound N32]
(S) O=C(CN1C(=O)Nc2cccnc2C12CC2)N[C@H]1COc2cc(F)cc(F)c21 [Compound N34]
Put the items in sequence by Rabbit Psoas IC25, from largest down. Reply: labels, ordered per the request.
P, R, S, Q
